MEASUREMENT TARGET: CT-L activity of purified 20S proteasome (Homo sapiens, UniProt P20618+P28074)
ASSAY EXPLANATION: in vitro CT-L activity of purified 20S proteasome
Type: biochemical
TEST SETTINGS: Table 1; read-out: IC50 (μM) Chymotrypsin-like activity
VALUE TYPE: IC50 (µM)

// solved cases for IC50 follow
{"COMPOUND": "Cc1ccc(OCC(=O)N(Cc2nc(-c3ccc(C)cc3)no2)C(C)C)cc1", "MEASUREMENT TARGET": "CT-L activity of purified 20S proteasome (Homo sapiens, UniProt P20618+P28074)", "READOUT NUMBER": 0.63}
{"COMPOUND": "CC(C)Cc1ccc(OCC(=O)N(Cc2nc(-c3cccnc3)no2)C(C)C)cc1 [11ak]", "MEASUREMENT TARGET": "CT-L activity of purified 20S proteasome (Homo sapiens, UniProt P20618+P28074)", "READOUT NUMBER": 0.14}
{"COMPOUND": "Cc1ccc(OCC(=O)N(Cc2nc(-c3ccccn3)no2)C(C)C)cc1 [11w]", "MEASUREMENT TARGET": "CT-L activity of purified 20S proteasome (Homo sapiens, UniProt P20618+P28074)", "READOUT NUMBER": 3.75}

I. Cc1ccc(OCC(=O)N(Cc2nc(-c3ccccc3)no2)C(C)C)cn1 [11z]
II. CC(C)N(Cc1nc(-c2cccnc2)no1)C(=O)COc1ccc(C2CCCCC2)cc1 [11ah]
III. CCCc1ccc(OCC(=O)N(Cc2nc(-c3cnccn3)no2)C(C)C)cc1 [11am]
IV. CC(C)N(Cc1nc(-c2ccccc2)no1)C(=O)COc1ccc(O)cc1 [11v]
V. CCCCCCc1ccc(OCC(=O)N(Cc2nc(-c3cccnc3)no2)C(C)C)cc1 [11ag]
query: In this exercise, place the 5 compounds in ascending sequence of their recorded IC50. Order the labels as requested and list them.
result: III, V, II, I, IV
(III: 0.105 µM, V: 0.428 µM, II: 1.36 µM, I: 4 µM, IV: 10.1 µM)

Numbers sourced from patent US9878999B2.
